- Test system: GABAA receptors
- assayRemarks: Electrophysiology assay, two-electrode voltage clamp in Xenopus oocytes expressing GABAA receptors
- Format: cell-based
- testParameters: GABA EC10, screening concentration of 10 μM, subunit combination not stated

molecule	EP Modulation
CCNC(=O)n1ncc2c3nn(-c4cccc(C(F)(F)F)c4)c(=O)c-3c[nH]c21 [Compound 6ai]	0%

Source of measurements: patent US9012470B2
